Data provenance: the supplement of paper PMC10307832

relative viability overview
System: NCI-H650
RUN DESCRIPTION: relative viability (nuclei count vs DMSO), 5 days (fraction); higher = more cells survive
ASSAY CONTEXT: first compound 0.03162 µM

The cases that follow already have their relative viability on record.
NC(=O)Nc1cc(-c2cccc(F)c2)sc1C(=O)N[C@H]1CCCNC1 [AZD7762] + Nc1ncn([C@H]2C[C@H](O)[C@@H](CO)O2)c(=O)n1 [Decitabine] (partner 2 µM)	0.404
NC(=O)Nc1cc(-c2cccc(F)c2)sc1C(=O)N[C@H]1CCCNC1 [AZD7762] + C[C@]1(O)C[C@@H](c2nc(-c3ccc4ccc(-c5ccccc5)nc4c3)c3c(N)nccn32)C1 [Linsitinib] (partner 1 µM)	0.984
NC(=O)Nc1cc(-c2cccc(F)c2)sc1C(=O)N[C@H]1CCCNC1 [AZD7762] + Cc1cc(Nc2cc(N3CCN(C)CC3)nc(Sc3ccc(NC(=O)C4CC4)cc3)n2)n[nH]1 [Tozasertib] (partner 0.1 µM)	0.643

Tell me reported relative viability for NC(=O)Nc1cc(-c2cccc(F)c2)sc1C(=O)N[C@H]1CCCNC1 [AZD7762] + CS(=O)(=O)N1CCN(Cc2cc3nc(-c4cccc5[nH]ncc45)nc(N4CCOCC4)c3s2)CC1 [Pictilisib] (partner 1 µM) , tested with NCI-H650.
0.854
